- target: T1, IGF-1R (coated on Maxisorp plates) (UniProt P08069 31-932, limits assumed)
- T1 construct: also called the receptor
- T1 sequence (P08069 31-932 limits assumed): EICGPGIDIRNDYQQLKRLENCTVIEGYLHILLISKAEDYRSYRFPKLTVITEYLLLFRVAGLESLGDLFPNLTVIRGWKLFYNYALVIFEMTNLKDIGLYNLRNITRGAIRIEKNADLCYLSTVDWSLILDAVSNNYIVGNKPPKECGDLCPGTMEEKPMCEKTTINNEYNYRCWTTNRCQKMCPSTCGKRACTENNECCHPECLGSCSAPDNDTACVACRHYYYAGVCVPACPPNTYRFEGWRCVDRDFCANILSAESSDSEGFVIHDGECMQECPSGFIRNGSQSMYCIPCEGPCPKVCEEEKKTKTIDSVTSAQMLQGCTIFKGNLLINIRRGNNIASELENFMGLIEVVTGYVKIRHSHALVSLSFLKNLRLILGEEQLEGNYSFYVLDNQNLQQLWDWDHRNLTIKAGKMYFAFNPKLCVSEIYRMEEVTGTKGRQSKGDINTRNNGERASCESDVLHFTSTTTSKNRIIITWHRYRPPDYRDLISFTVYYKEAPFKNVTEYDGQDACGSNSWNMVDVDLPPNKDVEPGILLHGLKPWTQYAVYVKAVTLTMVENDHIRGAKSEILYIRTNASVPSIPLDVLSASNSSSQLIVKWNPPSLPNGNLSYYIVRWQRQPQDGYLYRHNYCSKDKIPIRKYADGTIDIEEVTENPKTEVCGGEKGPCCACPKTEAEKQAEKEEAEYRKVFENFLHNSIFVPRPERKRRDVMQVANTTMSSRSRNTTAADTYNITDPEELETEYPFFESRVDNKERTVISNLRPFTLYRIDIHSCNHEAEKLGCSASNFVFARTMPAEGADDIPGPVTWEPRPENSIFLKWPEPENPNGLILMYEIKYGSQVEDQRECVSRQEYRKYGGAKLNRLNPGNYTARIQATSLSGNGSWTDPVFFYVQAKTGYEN
- experiment: competition ELISA, plate-coated IGF-1R, antibody titrated against 200 ng/mL IGF-2 biotin
reported.property: IC50 (µg/mL)
Expressed in µg/mL, but write only the number.

Worked cases, IC50 given:
binder: B02 antibody (antibody, V domains shown, Whole antibody) VH: QVELVESGGGVVQPGRSQRLSCAASGFTFSSTGMHWVRQAPGKGLEWVAYIWFDGSSTYYADSVRGRFTISRDNSKNTLYLQMNSLRAEDTAVYFCARELNRRYFDLWGRGTLVSVSS VL: EIVLTQSPATLSLSPGERATLSCRASQSVSSYLAWYQQKPGQAPRLLIYDASKRATGIPARFSGSGSGTDFTLTISSLEPEDFAVYYCQQRSKYPPWTFGQGTKVESK
IC50 (µg/mL): 0.115
//
binder: B10 antibody (antibody, V domains shown, Whole antibody) VH: QVELVESGGGVVQPGRSQRLSCAASGFTFSSYGMHWVRQAPGKGLEWVATIWFDGSSTYYADSVRGRFTISRDNSKNTLYLQMNSLRAEDTAVYFCARELGRRYFDLWGRGTLVSVSS VL: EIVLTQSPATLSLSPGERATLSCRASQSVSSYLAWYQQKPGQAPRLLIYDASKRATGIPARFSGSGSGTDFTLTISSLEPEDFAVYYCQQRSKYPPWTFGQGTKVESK
IC50 (µg/mL): 0.176

Using known records, supply IC50 for A11 antibody (antibody, V domains shown, Whole antibody) VH: QVELVESGGGVVQPGRSQRLSCAASGFTFSSYGMHWVRQAPGKGLEWVAYIWFDGSSTYYADSVRGRFTISRDNSKNTLYLQMNSLRAEDTAVYFCARELGRRYFDLWGRGTLVSVSS VL: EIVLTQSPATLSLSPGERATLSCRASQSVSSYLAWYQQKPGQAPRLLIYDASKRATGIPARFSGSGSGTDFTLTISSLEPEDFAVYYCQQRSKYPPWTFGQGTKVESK 0.158

Using known records, supply IC50 for B09 antibody (antibody, V domains shown, Whole antibody) VH: QVELVESGGGVVQPGRSQRLSCAASGFTFSSHGMHWVRQAPGKGLEWVAIIAGDASTTYYADSVRGRFTISRDNSKNTLYLQMNSLRAEDTAVYFCARELGRRYFDLWGRGTLVSVSS VL: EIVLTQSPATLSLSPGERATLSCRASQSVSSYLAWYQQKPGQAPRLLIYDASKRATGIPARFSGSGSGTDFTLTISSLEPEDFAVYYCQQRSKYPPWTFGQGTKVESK 0.153
